- Target system: SHP2-C SH2;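 note: peptide library displayed on the E. coli surface as eCPX fusions, selected cells deep-sequenced, score is each peptide's frequency after selection divided by its frequency in the input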
- Experiment summary: SH2 binding enrichment of the phosphorylated peptide, bacterial display (enrichment ratio); higher = better substrate or ligand; peptides without Tyr show the background
Readout name: SH2 binding enrichment

Consider the worked cases shown below.
                               chain  test_value
0  FENGEYIVRQG [PRKG1_Y247_I249V_YF]       0.552
1          PSDPSYEDMRE [BMPR1A_Y467]       0.324
2           MYQVQYNSSVD [LRFN1_Y458]       0.748
3     IGEGTSGVVFK [CDK2_Y15_Y15S_YF]       0.786
4          EAIAKYDLKAT [GRB2_Y7_F9L]       0.741
5     QEIATYRRLPE [KRT16_Y417_L421P]       0.593
6        KHMADYPDFKF [SOX11_Y113_YF]       0.719
7    TCRPPYFHRNC [HGD_Y333_F329C_YF]         0.9
8        RGDCMYASLLG [AR_Y269_P271S]        1.99
9  SPPILYSFFLN [FCRL6_Y239_D244N_YF]        1.28

(1) CTTIHYNFKCN [TP53_Y234_M237K_YF]
(2) TTKGSYSLSVR [HCK_Y180]
(3) VTNHIYTWVDP [DFNB31_Y234]
(4) KALSLYTKLMN [STAM_Y371_E366K]
Please list the entries, largest SH2 binding enrichment first. Please write the labels in the order that was asked for.
4, 1, 3, 2
(4: 3.1, 1: 1.5, 3: 0.956, 2: 0.664)

(a) CTTIQYNFMCN [TP53_Y234_H233Q_YF]
(b) KQELVYPNKKL [OPTN_Y356_T357P]
Min SH2 binding enrichment? a | b Return value: the label identifying the chosen record.
b
(b: 0.505, a: 1.68)

(I) PDSVDYRKKGY [CTSK_Y121]
(II) FSLIHYASIVD [MYH7_Y582_G584S]
Task for the reader: decide whether I or II has the larger SH2 binding enrichment. Return value: the label identifying the chosen record.
II
(II: 37.2, I: 0.708)

(I) LAARFYNWVCF [FLT4_Y1231_S1235C_YF]
(II) VSFDEYRFRSV [CFTR_Y515_YF]
(III) SKGYAYVHFDS [PABPC5_Y149]
Falling order of SH2 binding enrichment, please. List the labels according to the requested ordering.
III, I, II
(III: 29.3, I: 0.982, II: 0.55)

====

Known phosphorylation enrichment of a selection of sequences
- Target system: Fyn (UniProt P06241)
- Sequence (P06241 whole entry, looked up): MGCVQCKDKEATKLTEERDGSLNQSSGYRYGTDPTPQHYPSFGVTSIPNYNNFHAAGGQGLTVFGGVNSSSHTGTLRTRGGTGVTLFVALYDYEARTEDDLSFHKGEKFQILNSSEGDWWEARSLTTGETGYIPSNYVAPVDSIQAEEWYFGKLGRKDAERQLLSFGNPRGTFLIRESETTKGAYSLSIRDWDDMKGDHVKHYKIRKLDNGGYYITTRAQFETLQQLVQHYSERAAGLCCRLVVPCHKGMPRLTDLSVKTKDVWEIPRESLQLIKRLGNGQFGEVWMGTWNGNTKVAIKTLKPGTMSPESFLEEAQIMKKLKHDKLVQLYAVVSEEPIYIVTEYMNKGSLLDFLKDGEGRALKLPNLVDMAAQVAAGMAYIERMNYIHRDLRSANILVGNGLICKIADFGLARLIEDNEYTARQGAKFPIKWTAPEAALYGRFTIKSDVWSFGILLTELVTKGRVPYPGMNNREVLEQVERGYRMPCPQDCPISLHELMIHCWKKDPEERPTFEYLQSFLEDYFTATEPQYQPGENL
- Experiment summary: phosphorylation enrichment, bacterial display (enrichment ratio); higher = better substrate or ligand; peptides without Tyr show the background
Answer using only a numeral; do not append any unit.

Recorded results for 5 sequences are shown here.
>>> print(df.to_string())
                              chain         target_system  test_value
0   MGSYNYLGFAW [SPTLC2_Y178_R183W]  Fyn (UniProt P06241)       0.708
1     PRQRRYVYYYS [PTEN_Y174_S170R]  Fyn (UniProt P06241)       0.882
2     RPFFLYVAFHN [SGSH_Y174_D179N]  Fyn (UniProt P06241)       0.321
3  CTTIQYNFMCN [TP53_Y234_H233Q_YF]  Fyn (UniProt P06241)       0.494
4    YGMQLYQKYMH [GRB14_Y347_N349K]  Fyn (UniProt P06241)        1.31

For the sequence PPKFFDTRKLL [CYBB_Y41_Y41D] , the measured phosphorylation enrichment on Fyn (UniProt P06241) was 0.518

The value of phosphorylation enrichment recorded for SSNLFYRWLTA [CNGA3_Y169_YF] when tested on Fyn (UniProt P06241) reads 0.473

// returns phosphorylation enrichment for HCHEGYILHGA [SVEP1_Y2921] with Fyn (UniProt P06241); value = 0.888
